Consider the following molecules and their measured GI50 readings.
System: CCRF-CEM
protocol details: NCI tumour cell line growth inhibition, 48 h
Activity calls are given as the source filed them. Rule as the data show it: active = GI50 up to about 1.1 µM and inactive = higher.

smiles str: N=C(c1ccc2ccccc2c1)c1ccccc1Cc1ccccc1
GI50: 19.5 µM (inactive)
--
smiles str: O=c1c([Se]c2coc3ccccc3c2=O)coc2ccccc12
GI50: 18.1 µM (inactive)
--
smiles str: Cc1ccc([N+](=O)[O-])cc1S(=O)(=O)Nc1ccc(C(=O)/C=C/c2ccccc2)cc1
GI50: 20 µM (inactive)
--
smiles str: OCCOCCN1CCN(c2nc(N3CCCC3)c3nc(Cl)c(NCc4ccccc4)nc3n2)CC1
GI50: 12.7 µM (inactive)

====

Test system: A549
protocol details: NCI tumour cell line growth inhibition, 48 h
The source made the active and inactive calls. Cut-off read from the data, not from the text of the source: active = GI50 up to about 1.1 µM and inactive = higher.
observed property: GI50

compound: COc1cccc(-c2[nH]c3cc4c(cc3c(=O)c2C(=O)O)OCO4)c1
observed value: 44.7 µM (inactive)

compound: O=C(O)C1CC2C3CCC2C1C3=O (stereo unspecified)
observed value: > 100 µM (inactive)

compound: C[C@@H]1O[C@]2(O)[C@@H]3CCCN3S(=O)(=O)CCN2C1=O
observed value: > 100 µM (inactive)

compound: CN(C(=O)C1=CCCCCC1)c1ccccc1I
observed value: 62.1 µM (inactive)

compound: O=C1CSC(c2ccc(Cl)cc2Cl)N1c1ccc(Oc2ccc(Cl)cc2)c(Cl)c1 (stereo unspecified)
observed value: 27 µM (inactive)

compound: Nc1nc(=O)n(C2CC(O)C(O)C(CO)O2)cc1F (stereo unspecified)
observed value: > 100 µM (inactive)

====

Tested on: M19-MEL
protocol details: NCI tumour cell line growth inhibition, 48 h
Activity calls are given as the source filed them. Cut-off read from the data, not from the text of the source: active = GI50 up to about 1.1 µM and inactive = higher.

compound: CC(=O)Nc1ccc(-c2nnc(SCC(=O)Nc3cccc(C)c3)o2)cc1
GI50: 12.2 µM (inactive)
//
compound: CC(=O)N1C/C(=C\c2ccccc2)C(=O)/C(=C/c2ccccc2)C1
GI50: 3.34 µM (inactive)
//
compound: COc1ccc(NC(=O)C(=O)NO)c(OC)c1
GI50: 21.9 µM (inactive)
//
compound: Nc1nc(=O)n(C2CC(O)C(O)C(CO)O2)cc1F (stereo unspecified)
GI50: > 100 µM (inactive)
//
compound: Nc1ccn(C2OC(COC(=O)C34CC5CC(CC(C5)C3)C4)C(O)C2O)c(=O)n1 (stereo unspecified)
GI50: > 100 µM (inactive)
//
compound: C/C=C/C(C#N)O[Si](C)(C)C (stereo unspecified)
GI50: > 100 µM (inactive)
//
compound: CC(C)OC(=O)C1=C(O)c2ccccc2S(=O)(=O)N1
GI50: > 100 µM (inactive)
//
compound: CC(=O)c1cccc(NC(=O)C(=O)C(C(=O)c2ccccc2F)C2OC(=O)c3ccccc32)c1 (stereo unspecified)
GI50: 23.1 µM (inactive)
//
compound: O=[N+]([O-])c1ccc(Sc2c3ccccc3nc3cc(Cl)ccc23)cc1
GI50: > 10 µM (inactive)
//
compound: CCOP1(=O)C=C(C)C(=C(Cl)Cl)C(C)=C1 (stereo unspecified)
GI50: 8.07 µM (inactive)
//
compound: COC(=O)C(=O)C(C(=O)OC)C(=O)C(=O)Nc1cc(Cl)c(Cl)cc1Cl (stereo unspecified)
GI50: > 100 µM (inactive)

====

Test system: OVCAR-4
protocol details: NCI tumour cell line growth inhibition, 48 h
Activity calls are given as the source filed them. Rule as the data show it: active = GI50 up to about 1.1 µM and inactive = higher.

molecule: CC1=CC(=O)NCCN1C
target under test: OVCAR-4
GI50: > 100 µM (inactive)
--
molecule: O=C1c2sc(-c3ccc(F)cc3)cc2-n2cccc21
target under test: OVCAR-4
GI50: 28.1 µM (inactive)
--
molecule: O=C(NCCOC(=O)CCCCCCCCC(=O)OCCNC(=O)NC(=O)c1cn(Cc2ccccc2)c(=O)[nH]c1=O)NC(=O)c1cn(Cc2ccccc2)c(=O)[nH]c1=O
target under test: OVCAR-4
GI50: > 100 µM (inactive)
--
molecule: COC(=O)C(=O)C(C(=O)OC)C(=O)C(=O)Nc1cc(Cl)c(Cl)cc1Cl (configuration not stated)
target under test: OVCAR-4
GI50: > 100 µM (inactive)
--
molecule: Cc1ncc([N+](=O)[O-])n1CC[N+](C)([O-])CCCCn1ccnc1[N+](=O)[O-] (configuration not stated)
target under test: OVCAR-4
GI50: > 100 µM (inactive)
--
molecule: CN1CCN=C1c1nnn(-c2ccc([N+](=O)[O-])cc2)c1-c1ccccc1
target under test: OVCAR-4
GI50: > 100 µM (inactive)
--
molecule: [N-]=[N+]=CC(=O)OCCCCl
target under test: OVCAR-4
GI50: > 100 µM (inactive)
--
molecule: O=C1c2n[nH]nc2C(=O)c2n[nH]nc21
target under test: OVCAR-4
GI50: > 100 µM (inactive)
--
molecule: C[C@@]12CCC(=O)C=C1CC[C@H]1C2=CC[C@]2(C)C1CC[C@@]2(C)O (some centres not stated)
target under test: OVCAR-4
GI50: 25.2 µM (inactive)
--
molecule: N#Cc1c(C(N)=O)ncn1Cc1ccccc1
target under test: OVCAR-4
GI50: > 100 µM (inactive)
--
molecule: Cn1c(S)nc2c(Cl)cc(Cl)cc2c1=O
target under test: OVCAR-4
GI50: > 100 µM (inactive)
--
molecule: O=C1NC(NNc2ccccc2)=N/C1=C\c1ccccc1O
target under test: OVCAR-4
GI50: 50.9 µM (inactive)
--
molecule: NC(=O)c1cn(C2OC(CO)C(O)C2O)c(=O)[nH]c1=O (configuration not stated)
target under test: OVCAR-4
GI50: > 100 µM (inactive)
--
molecule: C#CCN(Cc1ccc2nc(-c3ccccc3)c(Cl)nc2c1)c1ccc(Cl)c(Cl)c1
target under test: OVCAR-4
GI50: > 100 µM (inactive)
--
molecule: CN(C)CC(/C(Cc1ccccc1)=N\NC(=O)C[n+]1ccccc1)c1ccccc1 (configuration not stated)
target under test: OVCAR-4
GI50: > 100 µM (inactive)
--
molecule: CC1=C(O)C(=O)C=C2C1=CC=C1[C@@]2(C)CC[C@@]2(C)C3C[C@@H](C)C(=O)[C@@H](O)[C@]3(C)CC[C@]12C (some centres not stated)
target under test: OVCAR-4
GI50: 3.32 µM (inactive)
--
molecule: O=c1[nH]cc(/C=N\Nc2ccccc2)c(=O)[nH]1
target under test: OVCAR-4
GI50: > 100 µM (inactive)
--
molecule: Cc1[nH]c2c(c1Cc1ccccc1)C1=NC=C(O)NN1C=N2
target under test: OVCAR-4
GI50: > 100 µM (inactive)
--
molecule: CN(/N=C/c1cccc2cccnc12)c1ccc([N+](=O)[O-])cc1[N+](=O)[O-]
target under test: OVCAR-4
GI50: 20.7 µM (inactive)
--
molecule: CN(C(=O)C1=CCCCCC1)c1ccccc1I
target under test: OVCAR-4
GI50: 18.2 µM (inactive)
--
molecule: O=C(O)C1CC2C3CCC2C1C3=O (configuration not stated)
target under test: OVCAR-4
GI50: > 100 µM (inactive)
--
molecule: CN(C)C(=S)SCC(N)=O
target under test: OVCAR-4
GI50: > 100 µM (inactive)
